Tested on: SN12C renal
PROTOCOL_DESCRIPTION: NCI tumour cell line growth inhibition, 48 h
MEASUREMENT_KIND: GI50

Consider the following illustrative entries.
INSERT INTO assay_data (compound, measurement_kind, result) VALUES
  ('O=C(C[C@@H](C(=O)NCc1cccc(C(F)(F)F)c1)N1C(=O)[C@@H](N2C(=O)OC[C@@H]2c2ccccc2)[C@H]1/C=C/c1ccccc1)NC1CCN(Cc2ccccc2)CC1', 'GI50', '9.46 µM'),
  ('CCOC(=O)c1c(C)n(Cc2ccc(OC)cc2)c2c1cc(O)c1[nH]c3c(c12)CCCC3', 'GI50', '7.79 µM');

Would you kindly share the measured GI50 for COc1ccc(OC(=O)O[C@H]2[C@H](O[C@H]3[C@@H](O)COC(O[C@H]4C[C@H]5[C@@H]6CC=C7C[C@@H](O)CC[C@]7(C)[C@H]6CC[C@]5(C)[C@H]4[C@H](C)C(=O)CCC(C)C)[C@@H]3OC(C)=O)OC[C@@H](O)[C@@H]2O)cc1 (stereo partly drawn) ? 11.2 µM
